Values compiled from ChEMBL document CHEMBL1201862.

# System: LOX IMVI
# Assay overview: NCI tumour cell line growth inhibition, 48 h
Active and inactive are the calls of the source. Cut-off read from the data, not from the text of the source: active = GI50 up to about 1.1 µM and inactive = higher. Non-standard residues stand in square brackets, D forms with d. Residues, ends and D or L forms follow the SMILES beside them. *: point of attachment. Benzoyl(4-OMe) = COc1ccc(C(=O)*)cc1; 2Thi = N[CH](Cc1cccs1)C(=O)O
Returns: one label drawn from active, inactive

Worked examples, 3 compounds total:
Clc1ccc2nc3c(c(-c4ccccc4)nn3-c3ccccc3)c(-c3ccccc3)c2c1 :: inactive
NS(=O)(=O)c1ccc(Nc2c3ccccc3nc3c(C(=O)NC(CO)(CO)CO)cccc23)cc1 :: active
N#CCSc1c(-c2ccccc2)c(=O)n(-c2ccccc2)c(=S)n1-c1ccccc1 :: inactive

Query: What did the test return for O=C1C(/C=N/CCc2c[nH]c3ccccc23)C(C(F)(F)F)=NN1c1nc2ccccc2s1 (stereo not drawn) ?
Result: inactive

Query: What did the test return for CCC(C)C(NC(=O)C(Cc1cccs1)NC(=O)C(CC(C)C)NC(=O)C(CC(C)C)NC(=O)C(CCCCN)NC(=O)C(CCCNC(=N)N)NC(=O)c1ccc(OC)cc1)C(=O)NC(CC(C)C)C(N)=O (stereo not drawn) ({Benzoyl(4-OMe)}-RKLL[2Thi]IL-NH2; configuration not given here) ?
Result: inactive

Query: What did the test return for N=C(N)SC(c1ccccc1)c1ccccc1 ?
Result: inactive

Query: What did the test return for C[C@]12CC[C@@H]3c4ccc(OC(=O)c5ccccc5)cc4CC[C@H]3[C@@H]1CCC2OC(=O)c1cccc2c(=O)c3ccccc3[nH]c12 (stereo partly drawn) ?
Result: inactive

Query: What did the test return for Nc1ccccc1S(=O)(=O)c1ccccc1 ?
Result: inactive

Query: What did the test return for O=C(NNC(=O)c1ccccc1O)c1cccc(Br)c1 ?
Result: inactive

Query: What did the test return for Cn1nc(-c2ccccc2)c2c(/C=C/c3ccc(Cl)cc3)onc2c1=O ?
Result: inactive

Query: What did the test return for O=C(Nc1ccccc1)OCCN=C1c2ccccc2C(Br)C(Br)c2ccccc21 (stereo not drawn) ?
Result: inactive

====

Dear all, this message contains GI50 results, target or system HCT-15.
Answers are plain numbers, in µM.

CCc1[nH]nc(C(N)=O)c1/N=N/N(C)C :: 68.4
COc1c(-c2nc3ccc(N4CCN(C)CC4)nc3[nH]2)cc(OC)c2[nH]c(COC(C)=O)nc12 :: 46
CC(C)(C)OC(=O)N1C(OP(=O)(Oc2ccccc2)Oc2ccccc2)=CSc2ccccc21 :: 37.5
N#CSC1CCCCNC1=O (configuration not stated) :: 11.8
Cc1ccc(/C=C2\NC(=S)N(CN3CCCCC3)C2=O)cc1 :: 36.1
Cc1cc2c(c3oc(C(O)(CO)C4CO4)cc(=O)c13)C(=O)c1c(O)cccc1C2=O (configuration not stated) :: 0.000887

Would you mind listing GI50 for each of the following compounds?
1. N=C(N)SC(c1ccccc1)c1ccccc1
2. Nc1ccccc1Sc1ccc(Cl)cc1
3. CN1C/C(=C\c2ccc(Cl)cc2)C(=O)/C(=C/c2ccc(Cl)cc2)C1
4. COc1ccc(/C=C\c2cc(OC)c(OC)c(OC)c2)cc1OC(=O)CC(N)C(=O)O (configuration not stated)

Result:
[16.4, 28.1, 0.731, 0.00258]

Query: Give the measured GI50 for CCOC(=O)CCC(NC(=O)c1ccc(Nc2nc3ccccc3nc2-c2cccs2)cc1)C(=O)OCC (configuration not stated)
Result: 21.9
